Target or system: c-Src SH2;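 note: peptide library displayed on the E. coli surface as eCPX fusions, selected cells deep-sequenced, score is each peptide's frequency after selection divided by its frequency in the input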
Assay method text: SH2 binding enrichment of the phosphorylated peptide, bacterial display (enrichment ratio); higher = better substrate or ligand; peptides without Tyr show the background
Measurement name: SH2 binding enrichment
Format: numeric value only, no unit, no commentary.

Worked cases, SH2 binding enrichment given:
- Biopolymer sequence: "SVSVNYGDLVQ [GRAP_Y101_Q104L]"
  SH2 binding enrichment: 0.479
- Biopolymer sequence: "ERLWDCGMSSS [F8_Y1728_Y1728C]"
  SH2 binding enrichment: 0.634
- Biopolymer sequence: "QTLTDYDTRFF [CSNK2A3_Y131_I133T_YF]"
  SH2 binding enrichment: 0.708
- Biopolymer sequence: "PTTKTYFPHFG [HBA1_Y43_D48G]"
  SH2 binding enrichment: 0.5

Please give the measured SH2 binding enrichment for this sequence: GKAFIYASHIV [ZNF573_Y229]
0.65

Please give the measured SH2 binding enrichment for this sequence: IRKAEYPFSSE [ATP2C1_Y452]
0.471

Please give the measured SH2 binding enrichment for this sequence: AVRVFYRKCPR [EPHB2_Y194]
0.417
